System under test: GSPT1 (Homo sapiens, UniProt P15170+Q96SW2)
Construct: endogenously expressing GSPT1 with HiBiT fusion tag via CRISPR; endogenous in cells; host or cells: 293T.114 (HiBiT-GSPT1), CRISPR knock-in, generated in house
Sequence (P15170 whole entry, the tested form may be a part): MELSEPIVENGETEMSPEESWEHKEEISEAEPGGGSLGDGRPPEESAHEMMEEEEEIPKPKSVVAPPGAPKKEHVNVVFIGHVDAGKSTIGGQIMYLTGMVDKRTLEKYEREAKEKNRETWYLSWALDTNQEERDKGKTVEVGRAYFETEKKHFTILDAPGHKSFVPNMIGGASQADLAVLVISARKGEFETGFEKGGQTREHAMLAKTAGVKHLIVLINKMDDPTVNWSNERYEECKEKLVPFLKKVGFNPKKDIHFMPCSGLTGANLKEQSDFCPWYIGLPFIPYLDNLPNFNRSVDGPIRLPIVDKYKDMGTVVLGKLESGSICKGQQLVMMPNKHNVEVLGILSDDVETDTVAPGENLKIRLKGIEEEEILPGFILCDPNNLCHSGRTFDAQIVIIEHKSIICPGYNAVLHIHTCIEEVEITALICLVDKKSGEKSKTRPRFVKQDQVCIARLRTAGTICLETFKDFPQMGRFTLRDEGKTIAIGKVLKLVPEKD
Sequence (Q96SW2 whole entry, the tested form may be a part): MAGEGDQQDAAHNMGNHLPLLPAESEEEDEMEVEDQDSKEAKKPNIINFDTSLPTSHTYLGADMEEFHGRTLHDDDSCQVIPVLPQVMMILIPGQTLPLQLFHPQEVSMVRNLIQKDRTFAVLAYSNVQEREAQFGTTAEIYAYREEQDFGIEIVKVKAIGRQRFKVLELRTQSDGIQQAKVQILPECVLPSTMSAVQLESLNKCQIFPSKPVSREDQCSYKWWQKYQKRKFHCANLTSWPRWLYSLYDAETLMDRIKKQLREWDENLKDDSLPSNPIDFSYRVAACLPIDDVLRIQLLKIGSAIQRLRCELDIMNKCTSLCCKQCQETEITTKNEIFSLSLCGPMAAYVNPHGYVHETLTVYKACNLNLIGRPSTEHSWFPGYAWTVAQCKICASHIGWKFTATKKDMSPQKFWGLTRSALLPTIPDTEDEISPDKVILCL
Sequence (Q16531 whole entry partner, the tested form may be a part): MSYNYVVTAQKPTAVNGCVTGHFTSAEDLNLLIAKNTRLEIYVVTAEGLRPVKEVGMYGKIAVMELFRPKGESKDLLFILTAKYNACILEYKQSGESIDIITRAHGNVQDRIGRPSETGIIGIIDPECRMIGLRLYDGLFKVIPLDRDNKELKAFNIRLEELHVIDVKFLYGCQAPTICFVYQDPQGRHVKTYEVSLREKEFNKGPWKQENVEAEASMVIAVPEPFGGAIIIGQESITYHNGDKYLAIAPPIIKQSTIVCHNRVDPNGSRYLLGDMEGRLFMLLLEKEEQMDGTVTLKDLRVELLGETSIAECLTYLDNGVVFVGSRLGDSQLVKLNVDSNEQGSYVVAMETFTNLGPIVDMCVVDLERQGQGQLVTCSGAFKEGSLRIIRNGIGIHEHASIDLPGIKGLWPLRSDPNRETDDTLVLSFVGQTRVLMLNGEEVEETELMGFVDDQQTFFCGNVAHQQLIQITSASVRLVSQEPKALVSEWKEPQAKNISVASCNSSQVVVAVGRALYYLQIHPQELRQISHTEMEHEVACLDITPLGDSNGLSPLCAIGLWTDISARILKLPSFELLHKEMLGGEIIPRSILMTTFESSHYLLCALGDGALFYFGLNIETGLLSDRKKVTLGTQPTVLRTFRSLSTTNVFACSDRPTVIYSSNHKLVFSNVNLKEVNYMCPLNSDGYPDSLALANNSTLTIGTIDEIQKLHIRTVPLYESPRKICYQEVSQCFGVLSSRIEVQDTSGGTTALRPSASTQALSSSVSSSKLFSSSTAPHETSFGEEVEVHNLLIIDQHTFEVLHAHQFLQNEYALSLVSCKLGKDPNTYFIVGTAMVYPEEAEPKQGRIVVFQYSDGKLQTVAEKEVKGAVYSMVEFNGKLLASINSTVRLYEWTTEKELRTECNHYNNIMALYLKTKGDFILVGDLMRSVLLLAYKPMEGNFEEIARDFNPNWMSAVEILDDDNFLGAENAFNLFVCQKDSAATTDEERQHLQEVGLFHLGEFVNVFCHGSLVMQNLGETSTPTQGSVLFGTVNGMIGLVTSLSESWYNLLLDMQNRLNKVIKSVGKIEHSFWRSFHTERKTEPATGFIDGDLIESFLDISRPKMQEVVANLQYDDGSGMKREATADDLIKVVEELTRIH
Test name: GSPT1 degradation assay, HiBiT method (Nano-Glo HiBiT Lytic Assay)
Assay type: cell-based
Particulars: 293T.114 (HiBiT-GSPT1) cells, 6 hours
We begin with a simple list: items and their reported Emax.

Example molecules with recorded Emax:
CC(C)(C)OC(=O)N1CC(Cc2ccc3c4c(cccc24)N(C2CCC(=O)NC2=O)C3=O)C1 (centres unmarked): 60 to 95%
O=C1CCC(N2C(=O)c3ccc(C4(F)CCN(Cc5ccccc5)CC4)c4nccc2c34)C(=O)N1 (centres unmarked): 60 to 95%
O=C1CCC(N2C(=O)c3ccc(C4(F)CCN(Cc5ccccc5)CC4)c4cccc2c34)C(=O)N1 (centres unmarked): 60 to 95%
CC(C)NC(=O)c1ccc2c3c(cccc13)N(C1CCC(=O)NC1=O)C2=O (centres unmarked): 60 to 95%
O=C1CCC(N2C(=O)c3ccc(C4CCN(Cc5cccc(S(=O)(=O)N6CCOCC6)c5)CC4)c4nccc2c34)C(=O)N1 (centres unmarked): 60 to 95%

Req: Value lookup for Emax; key = Cc1cc(C)nc(-c2ccc3c4c(cccc24)N(C2CCC(=O)NC2=O)C3=O)n1 (centres unmarked)
Resp: 60 to 95%

Req: Value lookup for Emax; key = CN1CC(F)(c2ccc3c4c(cccc24)N(C2CCC(=O)NC2=O)C3=O)C1 (centres unmarked)
Resp: > 95%

Req: Value lookup for Emax; key = O=C1CCC(N2C(=O)c3ccc(C4CCN(Cc5ccccc5)C4)c4cccc2c34)C(=O)N1 (centres unmarked)
Resp: > 95%

* * *

We begin with a simple list: items and their reported DC50.
System under test: GSPT1 (Homo sapiens, UniProt P15170+Q96SW2)
Construct: endogenously expressing GSPT1 with HiBiT fusion tag via CRISPR; endogenous in cells; host or cells: 293T.114 (HiBiT-GSPT1), CRISPR knock-in, generated in house
Test name: GSPT1 degradation assay, HiBiT method (Nano-Glo HiBiT Lytic Assay)
Assay type: cell-based
Particulars: 293T.114 (HiBiT-GSPT1) cells, 6 hours

Example molecules with recorded DC50:
CC(C)NC(=O)c1ccc2c3c(cccc13)N(C1CCC(=O)NC1=O)C2=O (centres unmarked): > 10 µM
O=C1CCC(N2C(=O)c3ccc(C4CCN(Cc5cccc(S(=O)(=O)N6CCOCC6)c5)CC4)c4nccc2c34)C(=O)N1 (centres unmarked): > 10 µM
O=C1CCC(N2C(=O)c3ccc(CC4CN(Cc5ccccc5)C4)c4cccc2c34)C(=O)N1 (centres unmarked): > 10 µM
O=C1CCC(N2C(=O)c3ccc(C4(F)CCN(Cc5ccccc5)CC4)c4nccc2c34)C(=O)N1 (centres unmarked): > 10 µM

Req: Value lookup for DC50; key = CN1CCC(c2ccc3c4c(cccc24)N(C2CCC(=O)NC2=O)C3=O)C1 (centres unmarked)
Resp: > 10 µM

* * *

System under test: GSPT1 (Homo sapiens, UniProt P15170+Q96SW2)
Construct: endogenously expressing GSPT1 with HiBiT fusion tag via CRISPR; endogenous in cells; host or cells: 293T.114 (HiBiT-GSPT1), CRISPR knock-in, generated in house
Test name: GSPT1 degradation assay, HiBiT method (Nano-Glo HiBiT Lytic Assay)
Assay type: cell-based
Particulars: 293T.114 (HiBiT-GSPT1) cells, 6 hours
Measurement kind: Emax

Example compounds with recorded Emax:
CN(c1ccc2c3c(cccc13)N(C1CCC(=O)NC1=O)C2=O)C1CCN(Cc2ccccc2)C1 (centres unmarked) [Compound 116]: 60 to 95%
CN1CC(Cc2ccc3c4c(cccc24)N(C2CCC(=O)NC2=O)C3=O)C1 (centres unmarked) [Compound 105]: > 95%

Req: Value lookup for Emax; key = CC(NC(=O)c1ccc2c3c(cccc13)N(C1CCC(=O)NC1=O)C2=O)c1ccccc1 (centres unmarked) [Compound 107]
Resp: 60 to 95%

Req: Value lookup for Emax; key = COc1ncc(CN2CCC(c3ccc4c5c(ccnc35)N(C3CCC(=O)NC3=O)C4=O)CC2)cn1 (centres unmarked) [Compound 127]
Resp: > 95%

Req: Value lookup for Emax; key = CN1CCN(c2ccc3c4c(cccc24)N(C2CCC(=O)NC2=O)C3=O)CC1 (centres unmarked) [Compound 114]
Resp: 60 to 95%

Req: Value lookup for Emax; key = CN1CCC(F)(c2ccc3c4c(cccc24)N(C2CCC(=O)NC2=O)C3=O)CC1 (centres unmarked) [Compound 97]
Resp: 60 to 95%

Req: Value lookup for Emax; key = CN1CC(c2ccc3c4c(cccc24)N(C2CCC(=O)NC2=O)C3=O)C1 (centres unmarked) [Compound 102]
Resp: 60 to 95%

Req: Value lookup for Emax; key = O=C1CCC(N2C(=O)c3ccc(C4(F)CN(Cc5ccccc5)C4)c4cccc2c34)C(=O)N1 (centres unmarked) [Compound 100]
Resp: > 95%
